Tested on: PC-3
assay-explanation: Antiproliferative activity against human PC3 cells after 24 hrs by MTT assay
Assay type: functional, cell-based
condition-description: PC-3, 24 h
pIC50: −log10 of the molar value.
assay-readout: pIC50

According to the records, this compound CCCCCc1cn(C/C=C2\OC(=O)C(OCc3ccccc3)=C2OCc2ccccc2)nn1 displays pIC50 of < 4.00

According to the records, this compound CC(C)(C)c1ccc(-c2cn(C/C=C3\OC(=O)C(OCc4ccccc4)=C3OCc3ccccc3)nn2)cc1 displays pIC50 of < 4.00

According to the records, this compound O=C1NC(O)(CCn2cc(Cc3ccccc3)nn2)C(OCc2ccccc2)=C1OCc1ccccc1 (stereo not drawn) displays pIC50 of < 4.00

###

Can you tell me pIC50 for the items I'm about to list?
Test system: MDA-MB-231
assay-explanation: Antiproliferative activity against human MDA-MB-231 cells after 24 hrs by MTT assay
Assay type: functional, cell-based
condition-description: MDA-MB-231, 24 h
# reply with the number alone; pIC50 is -log10 of concentration in mol/L

According to the records, this compound CCCCCC(O)c1cn(C/C=C2\OC(=O)C(OC)=C2OC)nn1 (stereo not given) displays pIC50 of 4.45

According to the records, this compound COC1=C(OC)/C(=C/Cn2cc(CCCCO)nn2)OC1=O displays pIC50 of 4.06

###

Can you tell me pIC50 for the items I'm about to list?
Tested on: PC-3
assay-explanation: Antiproliferative activity against human PC3 cells after 24 hrs by MTT assay
Type: functional, cell-based
condition-description: PC-3, 24 h
pIC50: −log10 of the molar value.

According to the records, this molecule CCCCCCCCN1C(=O)C(OCc2ccccc2)=C(OCc2ccccc2)C1(O)CCn1cc(-c2ccccn2)nn1 (stereo not given) displays pIC50 of 4.10

According to the records, this molecule CCCCCCc1cn(C/C=C2\OC(=O)C(OC)=C2OC)nn1 displays pIC50 of < 4.00

According to the records, this molecule CCCc1cn(C/C=C2\OC(=O)C(OCc3ccccc3)=C2OCc2ccccc2)nn1 displays pIC50 of < 4.00

According to the records, this molecule CCCc1cn(C/C=C2/C(OCc3ccccc3)=C(OCc3ccccc3)C(=O)N2CCC)nn1 displays pIC50 of < 4.00

According to the records, this molecule Cc1ccc(-c2cn(C/C=C3\OC(=O)C(OCc4ccccc4)=C3OCc3ccccc3)nn2)cc1 displays pIC50 of < 4.00

According to the records, this molecule CCCCCCCCN1C(=O)C(OCc2ccccc2)=C(OCc2ccccc2)/C1=C/Cn1cc(-c2ccccn2)nn1 displays pIC50 of < 4.00

According to the records, this molecule COC1=C(OC)/C(=C/Cn2cc(C3CC3)nn2)OC1=O displays pIC50 of < 4.00

According to the records, this molecule COC1=C(OC)/C(=C/Cn2cc(-c3ccccc3)nn2)OC1=O displays pIC50 of < 4.00

According to the records, this molecule Cc1ccc(-c2cn(CCC3(O)NC(=O)C(OCc4ccccc4)=C3OCc3ccccc3)nn2)cc1 (stereo not given) displays pIC50 of 4.07

According to the records, this molecule O=C1O/C(=C\Cn2cc(Cc3ccccc3)nn2)C(OCc2ccccc2)=C1OCc1ccccc1 displays pIC50 of 4.15

According to the records, this molecule O=C1NC(O)(CCn2cc(C3=CCCCC3)nn2)C(OCc2ccccc2)=C1OCc1ccccc1 (stereo not given) displays pIC50 of 4.17

According to the records, this molecule O=C1O/C(=C\Cn2cc(-c3ccccc3)nn2)C(OCc2ccccc2)=C1OCc1ccccc1 displays pIC50 of < 4.00

According to the records, this molecule O=C1NC(O)(CCn2cc(-c3ccccc3)nn2)C(OCc2ccccc2)=C1OCc1ccccc1 (stereo not given) displays pIC50 of < 4.00

According to the records, this molecule COC1=C(OC)/C(=C/Cn2cc(-c3ccc(C(C)(C)C)cc3)nn2)OC1=O displays pIC50 of < 4.00

According to the records, this molecule CCCCc1cn(C/C=C2\OC(=O)C(OCc3ccccc3)=C2OCc2ccccc2)nn1 displays pIC50 of < 4.00

According to the records, this molecule COC1=C(OC)/C(=C/Cn2cc(Cc3ccccc3)nn2)OC1=O displays pIC50 of < 4.00

According to the records, this molecule CC(C)(C)c1ccc(-c2cn(CCC3(O)NC(=O)C(OCc4ccccc4)=C3OCc3ccccc3)nn2)cc1 (stereo not given) displays pIC50 of 4.37

According to the records, this molecule CC/C(=C(\c1ccccc1)c1ccc(OCCN(C)C)cc1)c1ccccc1 displays pIC50 of 5.15

According to the records, this molecule COC1=C(OC)C(O)(CCn2cc(-c3ccc(C(C)(C)C)cc3)nn2)NC1=O (stereo not given) displays pIC50 of 4.52

According to the records, this molecule COC1=C(OC)/C(=C/Cn2cc(CCCCO)nn2)OC1=O displays pIC50 of < 4.00

###

Test system: HEK293
assay-explanation: Cytotoxicity against human HEK293 cells after 24 hrs by MTT assay
Assay type: cell-based
condition-description: HEK293, 24 h
pIC50: −log10 of the molar value.
Can you tell me pIC50 for the items I'm about to list?

According to the records, this molecule CC(C)(C)c1ccc(-c2cn(C/C=C3\OC(=O)C(OCc4ccccc4)=C3OCc3ccccc3)nn2)cc1 displays pIC50 of < 4.00

According to the records, this molecule O=C1NC(O)(CCn2cc(-c3ccccc3)nn2)C(OCc2ccccc2)=C1OCc1ccccc1 (centres undefined) displays pIC50 of < 4.00

According to the records, this molecule COC1=C(OC)/C(=C/Cn2cc(CCCCO)nn2)OC1=O displays pIC50 of < 4.00

According to the records, this molecule COC1=C(OC)/C(=C/Cn2cc(CO)nn2)OC1=O displays pIC50 of < 4.00

According to the records, this molecule O=C1O/C(=C\Cn2cc(Cc3ccccc3)nn2)C(OCc2ccccc2)=C1OCc1ccccc1 displays pIC50 of 4.15

According to the records, this molecule O=C1O/C(=C\Cn2cc(C3CC3)nn2)C(OCc2ccccc2)=C1OCc1ccccc1 displays pIC50 of < 4.00

According to the records, this molecule O=C1O/C(=C\Cn2cc(-c3ccccn3)nn2)C(OCc2ccccc2)=C1OCc1ccccc1 displays pIC50 of < 4.00

According to the records, this molecule Cc1ccc(-c2cn(CCC3(O)NC(=O)C(OCc4ccccc4)=C3OCc3ccccc3)nn2)cc1 (centres undefined) displays pIC50 of 4.35

According to the records, this molecule CCCc1cn(C/C=C2/C(OCc3ccccc3)=C(OCc3ccccc3)C(=O)N2CCC)nn1 displays pIC50 of 4.09

###

System: MDA-MB-231
assay-explanation: Antiproliferative activity against human MDA-MB-231 cells after 24 hrs by MTT assay
Format: functional, cell-based
condition-description: MDA-MB-231, 24 h
assay-readout: IC50

According to the records, this compound CCCCCCc1cn(C/C=C2\OC(=O)C(OC)=C2OC)nn1 displays IC50 of 74.7 µM

According to the records, this compound O=C1O/C(=C\Cn2cc(-c3ccccc3)nn2)C(OCc2ccccc2)=C1OCc1ccccc1 displays IC50 of 44 µM

According to the records, this compound CC(C)(C)c1ccc(-c2cn(CCC3(O)NC(=O)C(OCc4ccccc4)=C3OCc3ccccc3)nn2)cc1 (stereo not drawn) displays IC50 of > 100 µM

According to the records, this compound CC(C)(C)c1ccc(-c2cn(CCC3(O)C(OCc4ccccc4)=C(OCc4ccccc4)C(=O)N3CCc3ccccc3)nn2)cc1 (stereo not drawn) displays IC50 of > 100 µM

According to the records, this compound O=C1NC(O)(CCn2cc(Cc3ccccc3)nn2)C(OCc2ccccc2)=C1OCc1ccccc1 (stereo not drawn) displays IC50 of > 100 µM

According to the records, this compound CC/C(=C(\c1ccccc1)c1ccc(OCCN(C)C)cc1)c1ccccc1 [TAMOXIFEN] displays IC50 of 14 µM

According to the records, this compound O=C1NC(O)(CCn2cc(-c3ccccc3)nn2)C(OCc2ccccc2)=C1OCc1ccccc1 (stereo not drawn) displays IC50 of 21.1 µM

According to the records, this compound COC1=C(OC)/C(=C/Cn2cc(-c3ccccc3)nn2)OC1=O displays IC50 of > 100 µM

According to the records, this compound CC(C)(C)c1ccc(-c2cn(C/C=C3\OC(=O)C(OCc4ccccc4)=C3OCc3ccccc3)nn2)cc1 displays IC50 of 51.2 µM

According to the records, this compound COC1=C(OC)/C(=C/Cn2cc(C3CC3)nn2)OC1=O displays IC50 of > 100 µM

According to the records, this compound COC1=C(OC)/C(=C/Cn2cc(-c3ccccn3)nn2)OC1=O displays IC50 of > 100 µM

According to the records, this compound COC1=C(OC)/C(=C/Cn2cc(-c3ccc(C(C)(C)C)cc3)nn2)OC1=O displays IC50 of > 100 µM

According to the records, this compound Cc1ccc(-c2cn(CCC3(O)NC(=O)C(OCc4ccccc4)=C3OCc3ccccc3)nn2)cc1 (stereo not drawn) displays IC50 of 82.2 µM

According to the records, this compound CCCc1cn(C/C=C2\OC(=O)C(OCc3ccccc3)=C2OCc2ccccc2)nn1 displays IC50 of > 100 µM

According to the records, this compound COC1=C(OC)/C(=C/Cn2cc(CO)nn2)OC1=O displays IC50 of > 100 µM

According to the records, this compound O=C1O/C(=C\Cn2cc(CCCCO)nn2)C(OCc2ccccc2)=C1OCc1ccccc1 displays IC50 of > 100 µM

According to the records, this compound O=C1O/C(=C\Cn2cc(C3CC3)nn2)C(OCc2ccccc2)=C1OCc1ccccc1 displays IC50 of > 100 µM

According to the records, this compound COC1=C(OC)C(O)(CCn2cc(-c3ccc(C(C)(C)C)cc3)nn2)NC1=O (stereo not drawn) displays IC50 of 11.3 µM

According to the records, this compound CCCCCCCCN1C(=O)C(OCc2ccccc2)=C(OCc2ccccc2)/C1=C/Cn1cc(-c2ccccn2)nn1 displays IC50 of > 100 µM

According to the records, this compound O=C1O/C(=C\Cn2cc(Cc3ccccc3)nn2)C(OCc2ccccc2)=C1OCc1ccccc1 displays IC50 of 29.2 µM

According to the records, this compound CCCCc1cn(C/C=C2\OC(=O)C(OCc3ccccc3)=C2OCc2ccccc2)nn1 displays IC50 of > 100 µM

According to the records, this compound CCCc1cn(CCC2(O)C(OCc3ccccc3)=C(OCc3ccccc3)C(=O)N2CCC)nn1 (stereo not drawn) displays IC50 of > 100 µM

According to the records, this compound COC1=C(OC)/C(=C/Cn2cc(Cc3ccccc3)nn2)OC1=O displays IC50 of > 100 µM

According to the records, this compound COC1=C(OC)C(O)(CCn2cc(-c3ccccc3)nn2)NC1=O (stereo not drawn) displays IC50 of 18.3 µM

According to the records, this compound O=C1O/C(=C\Cn2cc(C3=CCCCC3)nn2)C(OCc2ccccc2)=C1OCc1ccccc1 displays IC50 of > 100 µM

According to the records, this compound O=C1NC(O)(CCn2cc(C3=CCCCC3)nn2)C(OCc2ccccc2)=C1OCc1ccccc1 (stereo not drawn) displays IC50 of 13.1 µM

According to the records, this compound CCCCCc1cn(C/C=C2\OC(=O)C(OCc3ccccc3)=C2OCc2ccccc2)nn1 displays IC50 of > 100 µM

According to the records, this compound O=C1O/C(=C\Cn2cc(-c3ccccn3)nn2)C(OCc2ccccc2)=C1OCc1ccccc1 displays IC50 of > 100 µM
